Recorded values, source patent US7683168B2.

Give Seiz. for every item shown.
Test system: seizure-like convulsions in mice
Assay: mouse seizure-like convulsions
Format: in vivo
Details: 10 mg/kg IV
Expressed in % 10 mg/kg IV, but write only the number.

Short answer on seizure-like convulsions in mice for C=CCN1C[C@H](C)N([C@@H](c2cccc(O)c2)c2cccc(C(=O)N3CCN(CCCCC(=O)OCC)CC3)c2)C[C@H]1C , Seiz.: 30

Short answer on seizure-like convulsions in mice for CCOC(=O)CCCN1CCN(C(=O)c2cccc([C@H](c3cccc(O)c3)N3C[C@@H](C)N(Cc4ccccc4)C[C@@H]3C)c2)CC1 , Seiz.: 80

Short answer on seizure-like convulsions in mice for C[C@@H]1CN([C@@H](c2cccc(O)c2)c2cccc(C(=O)N3CCC(C(=O)O)CC3)c2)[C@@H](C)CN1CC1CC1 , Seiz.: 0

Short answer on seizure-like convulsions in mice for C=CCN1C[C@H](C)N([C@@H](c2cccc(O)c2)c2cccc(C(=O)N3CCN(CCCC(=O)O)CC3)c2)C[C@H]1C , Seiz.: 0

Short answer on seizure-like convulsions in mice for CCOC(=O)C1CCN(C(=O)c2cccc([C@H](c3cccc(O)c3)N3C[C@@H](C)N(Cc4ccccc4)C[C@@H]3C)c2)CC1 , Seiz.: 70

Short answer on seizure-like convulsions in mice for C=CCN1C[C@H](C)N([C@@H](c2cccc(O)c2)c2cccc(C(=O)N3CCN(CCCCC(=O)O)CC3)c2)C[C@H]1C , Seiz.: 0

Short answer on seizure-like convulsions in mice for C=CCN1C[C@H](C)N([C@@H](c2cccc(O)c2)c2cccc(C(=O)N3CCC[C@H]3C(=O)OC)c2)C[C@H]1C , Seiz.: 10

Short answer on seizure-like convulsions in mice for C=CCN1C[C@H](C)N([C@@H](c2cccc(O)c2)c2cccc(C(=O)N3CCCN(CCC(=O)O)CC3)c2)C[C@H]1C , Seiz.: 0

Short answer on seizure-like convulsions in mice for C=CCN1C[C@H](C)N([C@@H](c2cccc(O)c2)c2cccc(C(=O)N3CCC(C(=O)OCC)CC3)c2)C[C@H]1C , Seiz.: 80

Short answer on seizure-like convulsions in mice for C[C@@H]1CN(C(c2cccc(O)c2)c2cccc(C(=O)N3CCCN(CCCC(=O)O)CC3)c2)[C@@H](C)CN1Cc1cccc(F)c1 (some centres unmarked) , Seiz.: 0

Short answer on seizure-like convulsions in mice for C[C@@H]1CN([C@@H](c2cccc(O)c2)c2cccc(C(=O)N3CCN(CC(=O)O)CC3)c2)[C@@H](C)CN1Cc1cccc(F)c1 , Seiz.: 0

Short answer on seizure-like convulsions in mice for C[C@@H]1CN([C@@H](c2cccc(O)c2)c2cccc(C(=O)N3CCN(CCCCCCC(=O)O)CC3)c2)[C@@H](C)CN1Cc1ccccc1 , Seiz.: 0

Short answer on seizure-like convulsions in mice for C=CCN1C[C@H](C)N(C(c2cccc(O)c2)c2cccc(C(=O)N3CCCN(CCCCCC(=O)O)CC3)c2)C[C@H]1C (some centres unmarked) , Seiz.: 0

Short answer on seizure-like convulsions in mice for C=CCN1C[C@H](C)N([C@@H](c2cccc(O)c2)c2cccc(C(=O)N3CCC(O)CC3)c2)C[C@H]1C , Seiz.: 0

Short answer on seizure-like convulsions in mice for C[C@@H]1CN(C(c2cccc(O)c2)c2cccc(C(=O)N3CCCN(CCCCC(=O)O)CC3)c2)[C@@H](C)CN1Cc1ccccc1 (some centres unmarked) , Seiz.: 0

Short answer on seizure-like convulsions in mice for C=CCN1C[C@H](C)N([C@@H](c2cccc(O)c2)c2cccc(C(=O)N3CCC[C@H]3C(=O)O)c2)C[C@H]1C , Seiz.: 0

Short answer on seizure-like convulsions in mice for C=CCN1C[C@H](C)N([C@@H](c2cccc(O)c2)c2cccc(C(=O)N3CCCN(CCC(=O)OCC)CC3)c2)C[C@H]1C , Seiz.: 30

Short answer on seizure-like convulsions in mice for CCOC(=O)CCCCN1CCCN(C(=O)c2cccc(C(c3cccc(O)c3)N3C[C@@H](C)N(Cc4cccc(F)c4)C[C@@H]3C)c2)CC1 (some centres unmarked) , Seiz.: 0

Short answer on seizure-like convulsions in mice for C=CCN1C[C@H](C)N([C@@H](c2cccc(O)c2)c2cccc(C(=O)N3CCN(C(=O)OCC)CC3)c2)C[C@H]1C , Seiz.: 40

Short answer on seizure-like convulsions in mice for CCOC(=O)CCCCCN1CCN(C(=O)c2cccc([C@H](c3cccc(O)c3)N3C[C@@H](C)N(Cc4ccccc4)C[C@@H]3C)c2)CC1 , Seiz.: 60

Short answer on seizure-like convulsions in mice for C=CCN1C[C@H](C)N([C@@H](c2cccc(O)c2)c2cccc(C(=O)N3CCN(CC(=O)OCC)CC3)c2)C[C@H]1C , Seiz.: 20

Short answer on seizure-like convulsions in mice for C[C@@H]1CN([C@@H](c2cccc(O)c2)c2cccc(C(=O)N3CCN(CCCCCC(=O)O)CC3)c2)[C@@H](C)CN1Cc1ccccc1 , Seiz.: 0

Short answer on seizure-like convulsions in mice for C=CCN1C[C@H](C)N([C@@H](c2cccc(O)c2)c2cccc(C(=O)N3CCN(CC(=O)O)CC3)c2)C[C@H]1C , Seiz.: 30

Short answer on seizure-like convulsions in mice for C=CCN1C[C@H](C)N([C@@H](c2cccc(O)c2)c2cccc(C(=O)N3CCCN(CCCC(=O)O)CC3)c2)C[C@H]1C , Seiz.: 0

Short answer on seizure-like convulsions in mice for CCOC(=O)CCCCN1CCCN(C(=O)c2cccc(C(c3cccc(O)c3)N3C[C@@H](C)N(Cc4ccccc4)C[C@@H]3C)c2)CC1 (some centres unmarked) , Seiz.: 25
